Reference for the values: patent US10457677B2

- measurement_target: purified human recombinant ATM (ataxia telangiectasia mutated), full length (Homo sapiens (Human), UniProt Q13315)
- Sequence (Q13315 whole entry, change not shown): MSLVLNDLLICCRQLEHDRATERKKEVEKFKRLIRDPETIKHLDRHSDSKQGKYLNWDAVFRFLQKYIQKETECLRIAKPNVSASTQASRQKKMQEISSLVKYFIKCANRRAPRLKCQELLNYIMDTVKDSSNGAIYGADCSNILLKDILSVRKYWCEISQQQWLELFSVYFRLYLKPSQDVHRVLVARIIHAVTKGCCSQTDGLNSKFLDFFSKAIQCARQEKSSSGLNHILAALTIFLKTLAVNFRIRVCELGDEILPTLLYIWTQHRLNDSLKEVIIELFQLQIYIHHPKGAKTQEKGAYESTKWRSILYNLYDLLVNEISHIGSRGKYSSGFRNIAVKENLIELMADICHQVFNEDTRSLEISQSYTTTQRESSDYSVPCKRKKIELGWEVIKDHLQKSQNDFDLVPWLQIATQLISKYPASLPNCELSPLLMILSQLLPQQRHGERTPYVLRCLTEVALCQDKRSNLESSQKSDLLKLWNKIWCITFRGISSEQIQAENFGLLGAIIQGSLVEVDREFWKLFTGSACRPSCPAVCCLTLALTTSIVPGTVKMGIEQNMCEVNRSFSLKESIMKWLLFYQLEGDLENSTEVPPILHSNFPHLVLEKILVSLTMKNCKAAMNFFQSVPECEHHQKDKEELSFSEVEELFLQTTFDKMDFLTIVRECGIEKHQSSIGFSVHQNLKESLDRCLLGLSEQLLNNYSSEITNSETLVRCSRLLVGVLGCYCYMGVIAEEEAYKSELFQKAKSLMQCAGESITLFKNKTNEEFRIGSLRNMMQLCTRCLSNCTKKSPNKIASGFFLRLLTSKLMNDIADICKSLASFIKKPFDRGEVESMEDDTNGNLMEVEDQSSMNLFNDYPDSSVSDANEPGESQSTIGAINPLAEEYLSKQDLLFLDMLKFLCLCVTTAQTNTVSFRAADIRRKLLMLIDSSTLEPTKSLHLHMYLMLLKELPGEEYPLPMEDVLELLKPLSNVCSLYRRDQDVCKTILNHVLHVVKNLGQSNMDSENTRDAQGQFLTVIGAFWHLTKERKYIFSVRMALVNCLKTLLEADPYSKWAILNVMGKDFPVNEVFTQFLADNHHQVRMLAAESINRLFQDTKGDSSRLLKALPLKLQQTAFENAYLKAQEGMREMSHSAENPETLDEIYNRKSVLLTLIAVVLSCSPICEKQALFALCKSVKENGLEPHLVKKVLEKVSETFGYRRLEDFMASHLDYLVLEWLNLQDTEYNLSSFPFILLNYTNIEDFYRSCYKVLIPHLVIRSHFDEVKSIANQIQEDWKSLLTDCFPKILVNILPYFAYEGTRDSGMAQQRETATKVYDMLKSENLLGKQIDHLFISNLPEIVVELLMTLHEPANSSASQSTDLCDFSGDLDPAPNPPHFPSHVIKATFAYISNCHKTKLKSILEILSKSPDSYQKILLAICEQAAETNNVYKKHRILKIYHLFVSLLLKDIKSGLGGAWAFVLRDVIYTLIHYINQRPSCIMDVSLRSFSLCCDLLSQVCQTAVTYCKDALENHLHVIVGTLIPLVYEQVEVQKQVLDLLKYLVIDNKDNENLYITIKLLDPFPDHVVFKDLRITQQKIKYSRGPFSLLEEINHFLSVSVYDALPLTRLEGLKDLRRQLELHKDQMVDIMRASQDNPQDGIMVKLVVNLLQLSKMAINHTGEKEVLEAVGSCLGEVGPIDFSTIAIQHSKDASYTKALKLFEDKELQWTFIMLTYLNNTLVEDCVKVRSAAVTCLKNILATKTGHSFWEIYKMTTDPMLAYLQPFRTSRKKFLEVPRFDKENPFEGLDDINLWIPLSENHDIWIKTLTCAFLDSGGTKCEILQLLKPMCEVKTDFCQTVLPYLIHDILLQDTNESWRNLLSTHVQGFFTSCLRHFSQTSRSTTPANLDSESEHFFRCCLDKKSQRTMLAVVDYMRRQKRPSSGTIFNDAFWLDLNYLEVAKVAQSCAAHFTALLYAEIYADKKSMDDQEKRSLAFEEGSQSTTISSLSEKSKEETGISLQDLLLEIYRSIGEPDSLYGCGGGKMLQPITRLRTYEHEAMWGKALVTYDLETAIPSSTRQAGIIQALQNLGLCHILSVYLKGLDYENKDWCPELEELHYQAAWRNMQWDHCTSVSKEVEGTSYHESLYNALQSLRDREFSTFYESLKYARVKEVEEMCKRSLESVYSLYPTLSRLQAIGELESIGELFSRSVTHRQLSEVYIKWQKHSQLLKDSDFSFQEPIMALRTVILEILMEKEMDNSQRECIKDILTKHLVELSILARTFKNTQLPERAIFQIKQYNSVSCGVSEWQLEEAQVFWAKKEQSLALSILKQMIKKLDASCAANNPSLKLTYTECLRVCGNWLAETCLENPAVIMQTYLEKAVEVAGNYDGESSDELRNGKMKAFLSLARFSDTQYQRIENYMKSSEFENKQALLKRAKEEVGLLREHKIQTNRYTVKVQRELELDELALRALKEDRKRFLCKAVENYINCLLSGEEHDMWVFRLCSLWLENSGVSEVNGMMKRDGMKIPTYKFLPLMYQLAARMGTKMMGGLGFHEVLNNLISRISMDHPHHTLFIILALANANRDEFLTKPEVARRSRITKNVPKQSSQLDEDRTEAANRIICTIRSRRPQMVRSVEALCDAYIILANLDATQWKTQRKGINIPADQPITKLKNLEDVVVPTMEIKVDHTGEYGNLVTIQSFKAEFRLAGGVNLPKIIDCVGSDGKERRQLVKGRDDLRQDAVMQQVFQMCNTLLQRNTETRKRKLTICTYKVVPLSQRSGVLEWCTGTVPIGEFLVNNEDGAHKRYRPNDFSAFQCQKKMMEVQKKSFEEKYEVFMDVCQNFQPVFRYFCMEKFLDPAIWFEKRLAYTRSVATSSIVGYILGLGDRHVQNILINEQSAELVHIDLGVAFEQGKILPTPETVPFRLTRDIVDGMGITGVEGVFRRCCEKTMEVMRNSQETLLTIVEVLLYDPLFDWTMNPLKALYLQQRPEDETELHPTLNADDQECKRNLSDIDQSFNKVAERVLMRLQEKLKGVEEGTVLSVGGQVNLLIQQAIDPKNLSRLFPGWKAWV
- assay_procedure: ATM kinase assay - determination of ATM inhibition (IC50 ATM), TR-FRET
- Assay type: biochemical
reported_metric: IC50

{"columns": ["molecule", "IC50"],
 "data": [
  ["CCn1cc(-c2cc3c(cc2OC)ncc2c3n(-c3c(F)cncc3F)c(=O)n2C)cn1 [Compound Example 26]", "< 1 nM"],
  ["COc1cc2ncc3c(c2cc1-c1cnn(C)c1)n(-c1c(F)cncc1OC)c(=O)n3C [Compound Example 15]", "< 1 nM"],
  ["COc1cc2ncc3c(c2cc1-c1cnn(C)c1)n(-c1nccs1)c(=O)n3C [Compound Example 47]", "< 10 nM"],
  ["CCc1cncc(F)c1-n1c(=O)n(C)c2cnc3cc(OC)c(-c4cnn(C)c4)cc3c21 [Compound Example 12]", "< 1 nM"],
  ["COc1cc2ncc3c(c2cc1-c1cn[nH]c1)n(-c1ncccc1F)c(=O)n3C [Compound Example 7]", "< 1 nM"]
]}

Parameters: items (list). Returns: IC50 for each item.
1. COc1cc2ncc3c(c2cc1-c1cn(C)nc1C)n(-c1c(C)cncc1F)c(=O)n3C [Compound Example 39]
2. COc1cc2ncc3c(c2cc1-c1cnn(C)c1)n(-c1cn(C)nc1C)c(=O)n3C [Compound Example 5]
3. CCn1cc(-c2cc3c(cc2OC)ncc2c3n(-c3ccncc3C)c(=O)n2C)cn1 [Compound Example 34]
4. COc1cc2ncc3c(c2cc1-c1cnn(C)c1)n(-c1cn(C)cn1)c(=O)n3C [compound 59]
5. COc1cc2ncc3c(c2cc1-c1cnn(C)c1)n(-c1ccnn1C)c(=O)n3C [Compound Example 49]

1. < 1 nM
2. < 1 nM
3. < 10 nM
4. < 10 nM
5. < 10 nM
